- system: recombinant SARS-CoV-2 RBD with C-terminal AviTag (SARS-CoV-2, UniProt P0DTC2 319-541)
- protocol_text: ELISA, competition with coated ACE2-Fc for RBD [Cont. 9]
Listing: pIC50 of selected binders
Give only the number. pIC50 is defined as minus log10 of concentration in molar units.

Examples with their reported pIC50 follow.
{"binder": "PP1109 MBP-5HVZ-PAPA-RN-25-H6 (VHH, Form: Dimer) VHH: QVQLVESGGGLVQPGGSLRLSCAASGEDYSYNAAHWFRQAPGKEREWVAAINSGGGTYYADSVKGRFTISRDNAKNTVYLQMNSLKPEDTAVYYCAYLGALDRDGYDAWGQGTQVTVSS", "pIC50": 7.53}
{"binder": "PP1102 MBP-5HVZ-PAPA-RN-17-H6 (VHH, Form: Dimer) VHH: QVQLVESGGGLVQPGGSLRLSCAASGSMYSRAVMHWFRQAPGKEREGVASIGRTGDSYYADSVKGRFTISRDNAKNTVYLQMNSLKPEDTAVYYCAADNLDVVYGNRYWGQGTQVTVSS", "pIC50": 8.62}

Turning now to a further record.
Return reported pIC50; argument: PP1112 MBP-5HVZ-PAPA-RN-28-H6 (VHH, Form: Dimer) VHH: QVQLVESGGGLVQPGGSLRLSCAASGSQFSHNLMSWFRQAPGKQREFVAAITSFGSTGYADSVKGRFTISRDNAKNTVYLQMNSLKPEDTAVYYCAALSSEDTSHYPRNYWGQGTQVTVSS
7.98
